The measurements presented in this section are drawn from the supplement of paper PMC10567573.

Form field: protein stability index (one value per entry).
test: protein stability index of a GFP-peptide fusion (GPS, HEK-293T) (PSI 1-6); higher = more stable; conditions: treatment: DMSO; c terminus: a fixed tail appended;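 note: 24-mer peptide tiles fused after GFP, lentivirally expressed, FACS-sorted into six equal bins by GFP/DsRed ratio, decoded by Illumina sequencing, PSI is the read-weighted mean bin number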

{"columns": ["ITEM SEQUENCE", "protein stability index"],
 "data": [
  ["FPAKYIYDPWNAPEGIQKVAKCLI [CRY1]", 2.85],
  ["LPDELGSQLPQVLHVSLGQKLVAA [MOSPD3]", 3],
  ["ISRDRLSSYYKFKLTREVLSLFVQ [ZER1]", 2.11],
  ["ALREENRMLSKENKILQVFWEEHK [CBY2]", 3.19],
  ["MSAQSVEEDSILIIPTPDEEEKIL [ZNF24]", 5.08],
  ["EQQHYFNTPFQLSIAPPEAEGVVL [PPTC7]", 3.29],
  ["KKIFAQLDSIIDDRVILSSSTSCL [CRYL1]", 2.35],
  ["QKGSHPMCKEHEDEKINIYCLTCE [TRIM63]", 4.64],
  ["SNEWKTVVGGAMFFIGFTALVIMW [COX4I1]", 3.09],
  ["LYKSLKTLSAELVPWLNLKKQDEN [CEP70]", 2.37]
]}

For NLLSIALYLLSGSIIAVAMQRGAR [POMT2] the sequence record lists protein stability index as 3.2

Query TPVVLVGNKSDLKQLRQVTKEEGL [RIT1] yields protein stability index of 4.54

response.value for DNLLRSTQKLSHSTKPSGSPLEEK [MATN2] (field: protein stability index) = 5.31

Entry PASTPSVLSSEQEFQMFPKSRLSS [ETS2] — recorded protein stability index = 4.57

According to the records, this sequence KRKLGLTALVGLRQNLSKSWLDVQ [TPD52L3] displays protein stability index of 2.17

Measured protein stability index, VRSQYPNQPTRFGKLLLRLPSLRT [NR2F2] : 2.42

Entry under test: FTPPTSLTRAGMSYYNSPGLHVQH [CCDC6] . Its protein stability index was 2.49

* * *

test: protein stability index of a GFP-peptide fusion (GPS, HEK-293T) (PSI 1-6); higher = more stable; details: treatment: MLN4924 1 uM, 8 h; c terminus: a fixed tail appended
Would you please tag the item Y when its protein stability index is 4 or above, and N when it is below?

{"columns": ["ITEM SEQUENCE", "ASSIGNED CLASS"],
 "data": [
  ["AEMSRVSIRILDELVLPFQELQID [HNF4A]", "N"]
]}

Inquiry: Does the reported protein stability index for PSLEAGNPAPAAPCPLGEPKTQAC [MYCL] fall at or above the 4 mark?
Reply text: Y

Inquiry: Test whether the sequence YDCGEDFYRSTAPSEDIWKKFELV [MYCL] records protein stability index of 4 or higher.
Reply text: N

Inquiry: Given the entry GGGPEATLSISDVRTLSEPPDKGE [ZBTB22] , answer whether its protein stability index meets or surpasses 4.
Reply text: Y

Inquiry: Entry PSSGPVTPQPTALTFAKSSWARQE [AUP1] : is its protein stability index no less than 4?
Reply text: Y

Inquiry: Assess whether reported protein stability index for MGWKKACDELELHQRFLREGRFWK [ZMYND11] sits at 4 or higher.
Reply text: N

Inquiry: Tell me whether protein stability index is at least 4 here: RHWHRPVLMAVSVHSERKLLPLVT [SCNN1D]
Reply text: N

Inquiry: Does protein stability index meet or surpass 4 for TCSNKKALLKFKPGAFIAGVPVQP [LPCAT4] ?
Reply text: N

Inquiry: Decide: protein stability index of ASGSFPSQVTATSGNGDFGDWSAF [CLINT1] >= 4?
Reply text: N

Inquiry: For this sequence, is measured protein stability index 4 or higher? LQKLSALLMTADILAETGIRKTVK [ELOA2]
Reply text: N

Inquiry: Is reported protein stability index greater than or equal to 4 here: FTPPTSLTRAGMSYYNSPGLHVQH [CCDC6]
Reply text: N

Inquiry: Check this sequence for protein stability index at or above 4: FLRQLPFRGDDGIFDDNFIEERKQ [SNX3]
Reply text: N

Inquiry: Has RGHMPEWYTKSFGHLCAAEVVKIR [DLC1] a recorded protein stability index greater than or equal to 4?
Reply text: N

Inquiry: Is protein stability index for NDTDFRVYLLGNPVVWWLNLLSIA [POMT2] at or above 4?
Reply text: N

Inquiry: Entry QSHISDMSVILSMDNNRNLDLDSI [KRT71] : is its protein stability index no less than 4?
Reply text: N

Inquiry: I'd appreciate it if you could say whether DLGASSLHVNGESLEMDSDEDDSE [EHMT1] has protein stability index at least equal to 4.
Reply text: Y

Inquiry: State whether the measured protein stability index reaches 4, counting equality as reaching it, for LLRTARVRRECWFLPTALLCAYGF [SLC19A2]
Reply text: N

* * *

test: protein stability index of a GFP-peptide fusion (GPS, HEK-293T) (PSI 1-6); higher = more stable; conditions: treatment: MLN4924 1 uM, 8 h; c terminus: a fixed tail appended
METRIC: protein stability index
Answer with the value's number alone.

Please review the entries below; each comes with its answer.
{"columns": ["ITEM SEQUENCE", "EXPERIMENTAL VALUE"],
 "data": [
  ["ENRRKVLYQRAPRNIHRHVILSEI [TCF25]", 2.75],
  ["FMYSGVENKQVVIIHHMRLQAKAL [INTS4]", 2.52],
  ["LEKGADVNRKSVKGNTALHDCAES [FEM1C]", 5.38]
]}

Briefly, protein stability index measured for EVSQQDPSHGEVGEHKDRIERQWG [ZSCAN9] : 4.95

# protein stability index of ISRDRLSSYYKFKLTREVLSLFVQ [ZER1] = 2.13

For reference, reported protein stability index for PSRVHASEVESAVWYVKKFGRYLE [FBXO39] stands at 2.27

Record NYFSAMYSSEDSTLASVPPAATFG [ELF3] . Reported protein stability index: 3.17

Reported protein stability index for MDHPSREKDERQRTTKPMAQRSAH [CSNK1G1] was 5.09

get_value(item= RQVALGAMEAVRVNPLHVDSTWLL [SLC25A39] , readout=protein stability index) returns 2.52

Short answer for PLTLQSQPKEPQLTCDSAQKCHSI [ZSCAN9] : protein stability index was 4.39

GFLLRYAVIKSNHSYCRMFLQRGA [ASB7] has a reported protein stability index of 2.34

Briefly, protein stability index measured for PPQPGCPAFIIVKLSPLRDRLVVT [ZSWIM9] : 2.99

* * *

experiment: protein stability index of a GFP-peptide fusion (GPS, HEK-293T) (PSI 1-6); higher = more stable; settings: treatment: MLN4924 1 uM, 8 h; c terminus: a fixed tail appended
METRIC: protein stability index
Output spec: single numeric token, no unit.

Observe how each entry below is paired with its result.
{"columns": ["ITEM SEQUENCE", "protein stability index"],
 "data": [
  ["IEEYMVHVEEHFQLLARRMQVDKK [FUT8]", 3.2],
  ["DLRVLVSNASEDTRRLRLAHVGME [SCARA5]", 3.15],
  ["SNEWKTVVGGAMFFIGFTALVIMW [COX4I1]", 3.06],
  ["RMSYQDPAQLSCLPYLEHVGHNHT [NFE2L1]", 3.12],
  ["SLLKKPDGVKESTESSNTTIEDED [CAMK2D]", 5.43]
]}

// protein stability index lookup, sequence = PDPPVNFLRQKVLSLPLPDPLKYY [PCMTD2] , result: 2.93

// recorded protein stability index for VPGIFCAGADLKERAKMSSSEVGP [AUH] : 3.64

// sample ACSAWLCPGLRLPGSLAGRRAGPA [AUH] , its protein stability index was 2.04

Sure, the documented protein stability index for FKMPWKPTHPSSTHALAEWASRRE [CDC25B] is 3.63

* * *

In this section, each of the sequences is paired with its reported protein stability index.
test: protein stability index of a GFP-peptide fusion (GPS, HEK-293T) (PSI 1-6); higher = more stable; details: treatment: DMSO; c terminus: a fixed tail appended

Worked cases, answers included:
{"columns": ["ITEM SEQUENCE", "METRIC", "EXPERIMENTAL VALUE"],
 "data": [
  ["MEESKAKFENLCKLMKEILDKKVE [HSP90AB1]", "protein stability index", 3.34],
  ["DREGPSSSKLVTKKAPQPAKPRLA [HDAC6]", "protein stability index", 5.09]
]}

We now examine a further sequence.
Please fill in: protein stability index reported for NPPAQPAPNAWQVIKGVLFRIFII [CLPTM1] = 1.9

* * *

Reported protein stability index values are given for each entry in this list.
assay: protein stability index of a GFP-peptide fusion (GPS, HEK-293T) (PSI 1-6); higher = more stable; conditions: treatment: DMSO; c terminus: a fixed tail appended
Number, no unit, nothing else.

Consider the following illustrative entries.
{"columns": ["ITEM SEQUENCE", "protein stability index"],
 "data": [
  ["TRHEGSFQVPVLCAVMNVVFITIL [CD69]", 2.76],
  ["NPIQKEEDEGVDLSEGSSNEDEDL [SPANXN3]", 4.96],
  ["LSPAGSSQEAADTPDTRHPCSLGS [YJU2B]", 5.24],
  ["GVYGLQRNLLVENIIDIYKQESTR [TRIM55]", 2.61],
  ["WCSVAYWEHRTRVGRLYAVYDQAV [SMAD6]", 2.44]
]}

# protein stability index (sequence: PAIIFEDANLDECIPATVRSSFAN [ALDH8A1] ) is 3.69

Reported protein stability index for EEPNGQIQGYRVYYTMDPTQHVNN [PTPRD] was 3.18

Given item DNMYRLAHFSPFLYYQSQELPNGS [PDZK1] , the value recorded as its protein stability index is 2.12

Entry HRAVASRSEEAVQVLIKHSADVNA [ANKRD44] ; protein stability index = 4.5

Briefly, protein stability index measured for SGITIPKPPKPPDKPLMPYMRYSR [SMARCE1] : 2.68

According to the records, this sequence ECVVAMHQAQLISKIPHILKEMYD [EIF5] displays protein stability index of 2.78

Short answer for ETVKLFICELVMALDYLQNQRIIH [STK32A] : protein stability index was 3.39

Form field protein stability index, entry PAGAEYCSSARHPAWGHCFYRLYQ [SCNN1D] : 2.08

The sequence identified as VYVSNMTDKLVTPGKYFSAAEYHA [IQUB] registered its protein stability index at 2.14

Per the record, SASEPQPASQAASSSSASADLLAG [SNAP91] has protein stability index of 5.51

Short answer for RRMAAEATEWQKAGAPPPSGSAVS [SRPK2] : protein stability index was 4.59

Record summary for TCSNKKALLKFKPGAFIAGVPVQP [LPCAT4] : reported protein stability index = 2.85

According to the records, this sequence DSASPVEDTSNDESSILGTDIDLQ [M1AP] displays protein stability index of 5.62

Reported protein stability index of RRGGGPVFPAPVVGSGGATSGKLL [ZBTB22] : 4.1

Sample KVSYLKQKGLGGAMVWALDLDDFA [CHIT1] ; protein stability index observed: 1.85

Short answer for YRVWKKMLASVESVPFSFDPNTAA [TRIM35] : protein stability index was 2.06

# protein stability index (sequence: QLMEKLREKQLSHSLRAVSTDPPH [BEX1] ) is 3.35

According to the records, this sequence SESQLASTESDKPTTGRVYESDSS [C18orf25] displays protein stability index of 5.5

The sequence SRVKGSAPEIDPSSDGSNFGWETK [KMT2E] showed protein stability index equal to 4.83
